The reported measurements were obtained from patent US20100291106A1.

biological target: T1, cynomolgus complement C3b protein (cynomolgus monkey (Macaca fascicularis)); assay: solution equilibrium titration (SET), ECL detection, Fab
T1 construct: also called cyno C3b; cynoC3b
For each of the binders below, state its pKd.
Note on pKd: it is the negative log10 of concentration, concentration in mol/L.

Answer with the recorded pKd of MOR09398 Fab (Fab, V domains shown, also called Fab 9398) VH: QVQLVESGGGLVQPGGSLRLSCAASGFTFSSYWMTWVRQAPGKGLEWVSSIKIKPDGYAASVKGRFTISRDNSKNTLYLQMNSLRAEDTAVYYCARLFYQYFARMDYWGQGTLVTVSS VL: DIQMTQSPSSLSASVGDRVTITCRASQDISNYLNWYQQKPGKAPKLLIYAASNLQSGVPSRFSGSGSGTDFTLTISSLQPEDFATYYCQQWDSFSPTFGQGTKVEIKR only.
10.00

Fill in pKd for record MOR09397 Fab (Fab, V domains shown, also called Fab 9397) VH: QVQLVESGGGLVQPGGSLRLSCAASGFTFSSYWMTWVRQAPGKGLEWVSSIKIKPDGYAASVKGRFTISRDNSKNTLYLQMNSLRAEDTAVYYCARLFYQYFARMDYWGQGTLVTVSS VL: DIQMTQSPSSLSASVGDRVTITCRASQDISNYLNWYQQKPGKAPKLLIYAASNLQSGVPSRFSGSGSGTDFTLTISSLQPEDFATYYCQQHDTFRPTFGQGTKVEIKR
9.92

Tell me measured pKd for MOR09423 Fab (Fab, V domains shown, also called Fab 9423) VH: QVQLVQSGAEVKKPGASVKVSCKASGYTFTGYYINWVRQAPGQGLEWMGIISPNQGTTGYAQKFQGRVTMTRDTSISTAYMELSSLRSEDTAVYYCARGNYDHLDYWGQGTLVTVSS VL: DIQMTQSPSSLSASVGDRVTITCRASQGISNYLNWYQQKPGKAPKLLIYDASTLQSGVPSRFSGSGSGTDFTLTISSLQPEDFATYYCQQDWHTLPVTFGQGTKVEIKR please.
9.47

Please supply the value of reported pKd for the item MOR09124 Fab (Fab, V domains shown, HCDR2-matured derivative of parental MOR08305) VH: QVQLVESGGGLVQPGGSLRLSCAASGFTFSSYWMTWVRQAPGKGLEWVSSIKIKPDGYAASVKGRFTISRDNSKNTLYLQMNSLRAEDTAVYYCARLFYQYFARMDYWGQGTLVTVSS VL: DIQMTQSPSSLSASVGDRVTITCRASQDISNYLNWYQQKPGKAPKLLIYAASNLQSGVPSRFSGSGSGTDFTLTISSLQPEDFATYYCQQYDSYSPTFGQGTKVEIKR
10.68
